- Tested on: OVCAR-3 ovarian
- measurementDescription: NCI tumour cell line growth inhibition, 48 h
Each record here notes measured GI50.
observedProperty: GI50

• OC(COc1cccc2ccccc12)CN1CCN(c2ccc(Cl)cc2)CC1 (stereo not given) = 23.8 µM
• COc1cc(/C=C2\CCCC3C2=Nc2ccccc2NC3c2cc(OC)c(OC)c(OC)c2)cc(OC)c1OC (stereo not given) = 2.08 µM
• Cc1ccc(Nc2[nH]c(C(=O)c3ccc(Cl)cc3)c(N)c2C(=S)Nc2ccccc2)nc1 = 29.4 µM
• C[n+]1c2cc(N)ccc2cc2ccc(N)cc21 (tested in a mixture with another compound) = 1.16 µM
• COc1ccc(N2CCN(CN3CCN(c4ccc(OC)cc4)C3)C2)cc1 = > 100 µM
